These entries and their values trace back to paper PMC10384010.

Reported logkIAM is given for each of the following compounds.
- assay_summary: HPLC on IAM (immobilized artificial membrane) column, retention factor
- Assay type: physicochemical
- conditions_used: logarithm of retention factor; IAM.PC.DD.2 column; phosphate buffer pH 7.4:acetonitrile 80:20
# print the numeric value only

COCCc1ccc(OCC(O)CNC(C)C)cc1 (centres unmarked) :: 0.64
O=C1Nc2ccc(Cl)cc2C(c2ccccc2Cl)=NC1O (centres unmarked) :: 0.96
Fc1ccc([C@@H]2CCNC[C@H]2COc2ccc3c(c2)OCO3)cc1 :: 2.06
CCOC(=O)[C@H](CCc1ccccc1)N[C@@H](C)C(=O)N1CCC[C@H]1C(=O)O :: -1.29

Answer with reported logkIAM of `CCCc1nc2c(C)cc(-c3nc4ccccc4n3C)cc2n1Cc1ccc(-c2ccccc2C(=O)O)cc1`
0.67

----------
- assay_summary: HPLC on IAM (immobilized artificial membrane) column, retention factor
- Type: physicochemical
- conditions_used: IAM.PC.DD.2 column; 10 mM phosphate buffer pH 7.4:acetonitrile 80:20
Reported k(IAM) retention factor is given for each of the following compounds.
# print the numeric value only

# example entries with known answers
CN1CCN=C(c2ccccc2)c2cc(Cl)ccc21 :: 34.65
OC(CCN1CCCCC1)(c1ccccc1)C1CC2C=CC1C2 (stereo not drawn) :: 41.47
CN1CCN2c3ncccc3Cc3ccccc3C2C1 (stereo not drawn) :: 5.83
CN(C)CCc1c[nH]c2ccc(Cn3cncn3)cc12 :: 2.53
CC1(C)S[C@@H]2[C@H](NC(=O)[C@H](N)c3ccc(O)cc3)C(=O)N2[C@H]1C(=O)O :: 0.05

Query compound follows.
Answer with reported k(IAM) retention factor of `C[C@H]1c2cccc(O)c2C(=O)C2=C(O)[C@]3(O)C(=O)C(C(N)=O)=C(O)[C@@H](N(C)C)[C@@H]3[C@@H](O)[C@@H]21`
1.76

----------
- assay_summary: HPLC on IAM (immobilized artificial membrane) column, retention factor
- Assay type: physicochemical
- conditions_used: logarithm of retention factor; IAM.PC.DD.2 column; phosphate buffer pH 7.4:acetonitrile 80:20
Range-based classes on measured logkIAM: lower = under -0.04, middle = from -0.04 up to 1, upper = 1 and over

Sample answers from the record:
CN/C(=N/CCSCc1nc[nH]c1C)NC#N :: lower
Cc1ccc(-c2cc(C(F)(F)F)nn2-c2ccc(S(N)(=O)=O)cc2)cc1 :: upper
CN1CCN(C2=Nc3cc(Cl)ccc3Nc3ccccc32)CC1 :: upper

Quick check: band for OC(CCN1CCCCC1)(c1ccccc1)C1CC2C=CC1C2 (stereo not drawn)
upper

Quick check: band for `C[C@](N)(Cc1ccc(O)c(O)c1)C(=O)O`
lower

Quick check: band for `C[C@H]1c2cccc(O)c2C(=O)C2=C(O)[C@]3(O)C(=O)C(C(N)=O)=C(O)[C@@H](N(C)C)[C@@H]3[C@@H](O)[C@@H]21`
middle

Quick check: band for `Cc1cc2c(s1)Nc1ccccc1N=C2N1CCN(C)CC1`
upper

Quick check: band for CC(=O)OCC(=O)[C@@]1(O)CC[C@H]2[C@@H]3CCC4=CC(=O)CC[C@]4(C)[C@H]3[C@@H](O)C[C@@]21C [hydrocortisone acetate]
middle

Quick check: band for `O=C1CC2(CCCC2)CC(=O)N1CCCCN1CCN(c2ncccn2)CC1`
middle

Quick check: band for `C=CCN1C[C@H](C(=O)N(CCCN(C)C)C(=O)NCC)C[C@@H]2c3cccc4[nH]cc(c34)C[C@H]21`
upper
